// data source = the kinase profiling compilation of Christmann-Franck et al. (2016)

Recorded kinase still bound, per cent of control by entry
ASSAY SYSTEM: CIT (human) (UniProt O14578)
Sequence (O14578 whole entry, looked up): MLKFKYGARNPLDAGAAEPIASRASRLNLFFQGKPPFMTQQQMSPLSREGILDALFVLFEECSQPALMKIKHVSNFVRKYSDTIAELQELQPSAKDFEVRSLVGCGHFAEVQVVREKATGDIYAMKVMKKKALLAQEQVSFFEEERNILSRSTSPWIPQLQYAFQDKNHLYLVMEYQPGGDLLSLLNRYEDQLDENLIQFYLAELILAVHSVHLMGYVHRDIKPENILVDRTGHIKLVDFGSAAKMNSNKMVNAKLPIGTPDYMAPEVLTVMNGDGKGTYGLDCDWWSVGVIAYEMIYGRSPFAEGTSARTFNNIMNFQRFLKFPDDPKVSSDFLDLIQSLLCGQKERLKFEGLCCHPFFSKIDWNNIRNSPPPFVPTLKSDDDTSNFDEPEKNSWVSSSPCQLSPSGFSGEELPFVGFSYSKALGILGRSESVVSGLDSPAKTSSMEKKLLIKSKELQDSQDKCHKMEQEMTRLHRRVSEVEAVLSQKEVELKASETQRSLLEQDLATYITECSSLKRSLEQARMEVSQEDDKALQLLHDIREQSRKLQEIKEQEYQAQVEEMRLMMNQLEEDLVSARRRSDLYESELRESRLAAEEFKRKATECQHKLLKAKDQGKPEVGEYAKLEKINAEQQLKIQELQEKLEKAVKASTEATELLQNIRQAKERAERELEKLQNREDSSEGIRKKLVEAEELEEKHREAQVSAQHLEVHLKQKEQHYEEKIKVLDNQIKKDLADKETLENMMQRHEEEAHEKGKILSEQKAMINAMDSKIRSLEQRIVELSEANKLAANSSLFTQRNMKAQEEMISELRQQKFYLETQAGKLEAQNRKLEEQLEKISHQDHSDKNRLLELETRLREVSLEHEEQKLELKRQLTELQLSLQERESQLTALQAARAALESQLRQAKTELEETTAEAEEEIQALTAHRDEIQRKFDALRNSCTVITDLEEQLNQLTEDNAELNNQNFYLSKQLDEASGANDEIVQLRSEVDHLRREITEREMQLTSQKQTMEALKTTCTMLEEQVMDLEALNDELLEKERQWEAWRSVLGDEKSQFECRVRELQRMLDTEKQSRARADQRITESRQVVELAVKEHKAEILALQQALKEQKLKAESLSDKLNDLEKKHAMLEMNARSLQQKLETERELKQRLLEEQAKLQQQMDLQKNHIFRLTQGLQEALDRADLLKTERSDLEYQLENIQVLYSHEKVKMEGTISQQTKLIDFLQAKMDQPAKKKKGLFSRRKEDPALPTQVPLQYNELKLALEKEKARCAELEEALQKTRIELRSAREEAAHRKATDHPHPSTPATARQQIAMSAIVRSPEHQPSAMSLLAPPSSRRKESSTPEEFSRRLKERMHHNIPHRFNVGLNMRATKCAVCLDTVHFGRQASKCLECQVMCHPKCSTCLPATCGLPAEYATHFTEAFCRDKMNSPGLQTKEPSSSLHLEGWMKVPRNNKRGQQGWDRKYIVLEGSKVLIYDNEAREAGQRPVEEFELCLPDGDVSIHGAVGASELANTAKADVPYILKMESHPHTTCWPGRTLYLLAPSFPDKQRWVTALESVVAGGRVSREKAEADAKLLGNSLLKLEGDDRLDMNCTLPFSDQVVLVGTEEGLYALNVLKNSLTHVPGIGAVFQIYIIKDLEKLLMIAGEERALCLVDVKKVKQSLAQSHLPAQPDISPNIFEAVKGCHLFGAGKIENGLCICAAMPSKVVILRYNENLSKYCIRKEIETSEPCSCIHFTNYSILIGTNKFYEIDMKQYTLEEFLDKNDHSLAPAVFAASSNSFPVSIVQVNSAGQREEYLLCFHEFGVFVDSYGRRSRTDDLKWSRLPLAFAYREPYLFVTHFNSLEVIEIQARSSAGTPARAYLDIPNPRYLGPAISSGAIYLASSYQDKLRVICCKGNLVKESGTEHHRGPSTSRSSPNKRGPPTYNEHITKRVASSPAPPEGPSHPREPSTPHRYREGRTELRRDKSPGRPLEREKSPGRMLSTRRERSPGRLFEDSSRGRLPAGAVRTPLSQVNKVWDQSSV
EXPERIMENTAL PROTOCOL: KINOMEscan competition binding
EXPERIMENTAL SETUP: compound 10.0 µM
Numbers only here, please. The scale is %.

Consider the reported kinase still bound, per cent of control for these compounds:
# COMPOUND, kinase still bound, per cent of control (%)
data = [
    ("CCN1CCN(Cc2ccc(NC(=O)c3ccc(C)c(/C=C/c4cnc5[nH]ccc5c4OC)c3)cc2C(F)(F)F)CC1", 0),
    ("C=CC(=O)Nc1ccc(C(=O)c2sc(Nc3ccc(N4CCN(C)CC4)cc3OC)nc2N)cc1", 13),
]

Q: # get_value(readout= kinase still bound, per cent of control, system= CIT (human) (UniProt O14578)) for N#Cc1cc(-c2ccnc(Nc3ccc(-n4cnc(-c5cccnc5)n4)cc3)n2)cc(N2CCOCC2)c1
Result: 0.9

Q: # get_value(readout= kinase still bound, per cent of control, system= CIT (human) (UniProt O14578)) for CC1=C(C(=O)Nc2cc3cn[nH]c3cc2F)C(c2ccc(C(F)(F)F)cc2)CC(=O)N1 (centres undefined)
Result: 87

Q: # get_value(readout= kinase still bound, per cent of control, system= CIT (human) (UniProt O14578)) for CNC(=O)Nc1ccc(-c2nc(N3CC4CCC(C3)O4)c3cnn(C4CCC5(CC4)OCCO5)c3n2)cc1
Result: 100

Q: # get_value(readout= kinase still bound, per cent of control, system= CIT (human) (UniProt O14578)) for CCOc1cc(N2CCC(O)CC2)ccc1Nc1ncc2c(n1)N(C)c1ccccc1C(=O)N2C
Result: 100

Q: # get_value(readout= kinase still bound, per cent of control, system= CIT (human) (UniProt O14578)) for CC(=O)c1c(C)c2cnc(Nc3ccc(N4CCNCC4)cn3)nc2n(C2CCCC2)c1=O
Result: 3.2

Q: # get_value(readout= kinase still bound, per cent of control, system= CIT (human) (UniProt O14578)) for CCN(CCO)CCCOc1ccc2c(Nc3cc(CC(=O)Nc4cccc(F)c4)[nH]n3)ncnc2c1
Result: 27

Q: # get_value(readout= kinase still bound, per cent of control, system= CIT (human) (UniProt O14578)) for COc1cc(C)c(Sc2cnc(NC(=O)c3ccc(CNC(C)C(C)C)cc3)s2)cc1C(=O)N1CCN(C(C)=O)CC1 (centres undefined)
Result: 100

---

ASSAY SYSTEM: TEC (human) (UniProt P42680)
Sequence (P42680 whole entry, looked up): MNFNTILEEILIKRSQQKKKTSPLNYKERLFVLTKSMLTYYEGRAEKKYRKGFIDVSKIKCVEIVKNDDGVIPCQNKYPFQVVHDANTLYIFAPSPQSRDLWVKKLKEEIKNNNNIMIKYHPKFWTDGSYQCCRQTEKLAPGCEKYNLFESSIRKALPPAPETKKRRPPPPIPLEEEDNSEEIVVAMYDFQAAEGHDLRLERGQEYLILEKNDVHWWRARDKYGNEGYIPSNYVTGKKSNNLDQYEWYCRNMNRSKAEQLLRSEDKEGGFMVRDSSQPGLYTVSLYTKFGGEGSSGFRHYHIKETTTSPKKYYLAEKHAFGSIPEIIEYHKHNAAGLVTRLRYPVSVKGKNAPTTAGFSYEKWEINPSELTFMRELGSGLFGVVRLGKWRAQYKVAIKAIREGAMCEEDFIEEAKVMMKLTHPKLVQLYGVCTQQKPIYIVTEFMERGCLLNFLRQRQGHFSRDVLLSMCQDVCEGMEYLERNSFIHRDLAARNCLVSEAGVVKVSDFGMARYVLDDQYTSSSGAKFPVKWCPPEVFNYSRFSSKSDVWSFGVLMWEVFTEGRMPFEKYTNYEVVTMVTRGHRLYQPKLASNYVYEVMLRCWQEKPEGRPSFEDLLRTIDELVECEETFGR
EXPERIMENTAL PROTOCOL: KINOMEscan competition binding
EXPERIMENTAL SETUP: compound 10.0 µM
ENDPOINT: kinase still bound, per cent of control
// unit must come after the numeric part

Consider the reported kinase still bound, per cent of control for these molecules:
# CHEMICAL STRUCTURE, kinase still bound, per cent of control
measured = [
    ("CCc1nc(-c2cccc(C)c2)c(-c2ccnc(NC(=O)c3ccccc3)c2)s1", "100%"),
    ("CCCS(=O)(=O)Nc1ccc(F)c(C(=O)c2c[nH]c3ncc(Cl)cc23)c1F", "100%"),
    ("N#C/C(=C1/Nc2ccccc2S1)c1ccnc(NCCc2cccnc2)n1", "92%"),
]

Q: GET /values?readout=kinase still bound, per cent of control&item= CCN(CCO)CCCOc1ccc2c(Nc3cc(CC(=O)Nc4cccc(F)c4)[nH]n3)ncnc2c1
Result: 78%

Q: GET /values?readout=kinase still bound, per cent of control&item= CCN1CCN(Cc2ccc(NC(=O)c3ccc(C)c(/C=C/c4cnc5[nH]ccc5c4OC)c3)cc2C(F)(F)F)CC1
Result: 0.5%

---

ASSAY SYSTEM: EPHB1 (human) (UniProt P54762)
Sequence (P54762 whole entry, looked up): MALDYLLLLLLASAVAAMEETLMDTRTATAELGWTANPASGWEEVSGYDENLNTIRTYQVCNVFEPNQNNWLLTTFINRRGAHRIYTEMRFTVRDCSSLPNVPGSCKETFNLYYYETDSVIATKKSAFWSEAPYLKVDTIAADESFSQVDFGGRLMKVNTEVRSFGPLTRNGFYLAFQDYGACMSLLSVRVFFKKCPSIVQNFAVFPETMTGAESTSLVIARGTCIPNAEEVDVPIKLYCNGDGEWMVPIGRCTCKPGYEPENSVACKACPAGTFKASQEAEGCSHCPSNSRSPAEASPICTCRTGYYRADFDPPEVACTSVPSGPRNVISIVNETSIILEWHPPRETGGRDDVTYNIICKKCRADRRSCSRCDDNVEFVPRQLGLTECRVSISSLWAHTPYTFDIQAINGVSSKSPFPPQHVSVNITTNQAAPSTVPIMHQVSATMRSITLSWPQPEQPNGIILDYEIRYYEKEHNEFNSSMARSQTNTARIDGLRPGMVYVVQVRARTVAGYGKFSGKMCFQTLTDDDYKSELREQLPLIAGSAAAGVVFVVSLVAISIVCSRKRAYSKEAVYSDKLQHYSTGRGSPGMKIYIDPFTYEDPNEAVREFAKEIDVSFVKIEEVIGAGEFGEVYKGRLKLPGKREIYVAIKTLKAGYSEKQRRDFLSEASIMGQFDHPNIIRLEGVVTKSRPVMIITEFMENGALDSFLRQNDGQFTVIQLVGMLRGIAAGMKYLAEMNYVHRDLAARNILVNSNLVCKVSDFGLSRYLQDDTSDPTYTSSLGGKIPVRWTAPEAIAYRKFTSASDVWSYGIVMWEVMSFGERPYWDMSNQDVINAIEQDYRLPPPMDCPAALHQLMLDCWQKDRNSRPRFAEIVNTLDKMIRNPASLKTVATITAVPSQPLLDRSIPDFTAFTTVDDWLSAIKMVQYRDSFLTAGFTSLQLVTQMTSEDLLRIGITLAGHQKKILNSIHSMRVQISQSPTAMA
EXPERIMENTAL PROTOCOL: KINOMEscan competition binding
EXPERIMENTAL SETUP: compound 10.0 µM
Doc: threshold 80% (exclusive). Items with kinase still bound, per cent of control beneath it return true (1); others return false (0).

# COMPOUND, ASSIGNED LABEL
records = [
    ("N#C/C(=C1/Nc2ccccc2S1)c1ccnc(NCCc2cccnc2)n1", "false (0)"),
    ("COc1cc2ncnc(Nc3cccc(Cl)c3)c2cc1OC", "true (1)"),
    ("CCCS(=O)(=O)Nc1ccc(F)c(C(=O)c2c[nH]c3ncc(Cl)cc23)c1F", "false (0)"),
    ("CCN(CCO)CCCOc1ccc2c(Nc3cc(CC(=O)Nc4cccc(F)c4)[nH]n3)ncnc2c1", "false (0)"),
    ("CCc1nc(-c2cccc(C)c2)c(-c2ccnc(NC(=O)c3ccccc3)c2)s1", "false (0)"),
]

Q: Could you please tell me whether kinase still bound, per cent of control recorded for CCOc1cc(N2CCC(O)CC2)ccc1Nc1ncc2c(n1)N(C)c1ccccc1C(=O)N2C is less than 80%?
Result: false (0)

Q: Could you please tell me whether kinase still bound, per cent of control recorded for CC1=C(C(=O)Nc2cc3cn[nH]c3cc2F)C(c2ccc(C(F)(F)F)cc2)CC(=O)N1 (centres undefined) is less than 80%?
Result: false (0)

Q: Could you please tell me whether kinase still bound, per cent of control recorded for Cc1cn(-c2cc(C(=O)Nc3ccc(C)c(NC(=O)c4ccno4)c3)cc(C(F)(F)F)c2)cn1 is less than 80%?
Result: true (1)

Q: Could you please tell me whether kinase still bound, per cent of control recorded for COc1ccc(N(C(=O)Oc2cc(C(=O)Nc3cccc(C(F)(F)F)c3)ccc2C)c2ccnc(Nc3ccc(N4CCN(C)CC4)cc3)n2)c(OC)c1 is less than 80%?
Result: true (1)

---

ASSAY SYSTEM: JAK3 JH1 catalytic (human)
EXPERIMENTAL PROTOCOL: KINOMEscan competition binding
EXPERIMENTAL SETUP: compound 10.0 µM
Doc: threshold 40% (exclusive). Items with kinase still bound, per cent of control beneath it return TRUE; others return FALSE.

Known results for compounds:
# CHEMICAL STRUCTURE, ASSIGNED LABEL
records = [
    ("COc1cc2c(Nc3ccc(NC(=O)c4ccccc4)cc3)ncnc2cc1OCCCN1CCOCC1", "FALSE"),
    ("CCN1CCN(Cc2ccc(NC(=O)c3ccc(C)c(/C=C/c4cnc5[nH]ccc5c4OC)c3)cc2C(F)(F)F)CC1", "TRUE"),
    ("COc1ccc(N(C(=O)Oc2cc(C(=O)Nc3cccc(C(F)(F)F)c3)ccc2C)c2ccnc(Nc3ccc(N4CCN(C)CC4)cc3)n2)c(OC)c1", "TRUE"),
    ("O=c1[nH]c2ccccc2n1C1CCN(Cc2ccc(-c3nc4cc5[nH]cnc5cc4nc3-c3ccccc3)cc2)CC1", "FALSE"),
    ("N#Cc1cc(-c2ccnc(Nc3ccc(-n4cnc(-c5cccnc5)n4)cc3)n2)cc(N2CCOCC2)c1", "TRUE"),
    ("CCN(CCO)CCCOc1ccc2c(Nc3cc(CC(=O)Nc4cccc(F)c4)[nH]n3)ncnc2c1", "FALSE"),
    ("CNC(=O)Nc1ccc(-c2nc(N3CC4CCC(C3)O4)c3cnn(C4CCC5(CC4)OCCO5)c3n2)cc1", "FALSE"),
]

With those in mind, consider the next compound.
Q: Could you please tell me whether kinase still bound, per cent of control recorded for COc1cc2ncnc(Nc3cccc(Cl)c3)c2cc1OC is less than 40%?
Result: TRUE

---

Test system: FLT3 (human), P36888 [D835Y]
EXPERIMENTAL PROTOCOL: KINOMEscan competition binding
EXPERIMENTAL SETUP: compound 10.0 µM
Doc: threshold 20% (exclusive). Items with kinase still bound, per cent of control beneath it return 1 (yes); others return 0 (no).

Known results for molecules:
# CHEMICAL STRUCTURE, ASSIGNED LABEL
rows = [
    ("C=CC(=O)Nc1ccc(CN(C(=O)Nc2c(Cl)c(OC)cc(OC)c2Cl)c2cc(Nc3ccc(N4CCN(C)CC4)cc3)ncn2)cc1", "0 (no)"),
    ("COc1cc2ncn(-c3cc(OCc4ccccc4C(F)(F)F)c(C(N)=O)s3)c2cc1OC", "0 (no)"),
    ("O=C1Nc2ccc(I)cc2/C1=C/c1cc(Br)c(O)c(Br)c1", "1 (yes)"),
    ("COc1ccc(N(C(=O)Oc2cc(C(=O)Nc3cccc(C(F)(F)F)c3)ccc2C)c2ccnc(Nc3ccc(N4CCN(C)CC4)cc3)n2)c(OC)c1", "0 (no)"),
    ("Cc1cc([C@@H](C)Nc2ccccc2C(=O)O)c2nc(N3CCOCC3)cc(=O)n2c1", "0 (no)"),
    ("C[C@@H](Oc1cc(-c2cnn(C3CCNCC3)c2)cnc1N)c1c(Cl)ccc(F)c1Cl", "1 (yes)"),
]

Q: Could you please tell me whether kinase still bound, per cent of control recorded for O=c1cc(N2CCOCC2)oc2c(-c3cccc4c3sc3ccccc34)cccc12 is less than 20%?
Result: 0 (no)

Q: Could you please tell me whether kinase still bound, per cent of control recorded for C=CC(=O)Nc1cccc(Oc2nc(Nc3ccc(N4CCN(C)CC4)cc3OC)ncc2Cl)c1 is less than 20%?
Result: 1 (yes)

Q: Could you please tell me whether kinase still bound, per cent of control recorded for CCN1CCN(C(=O)Cc2ccc(Nc3ncc(F)c(Nc4ccc(C(=O)Nc5ccccc5Cl)cc4)n3)cc2)CC1 is less than 20%?
Result: 1 (yes)

Q: Could you please tell me whether kinase still bound, per cent of control recorded for CCOc1cc(N2CCC(O)CC2)ccc1Nc1ncc2c(n1)N(C)c1ccccc1C(=O)N2C is less than 20%?
Result: 0 (no)

Q: Could you please tell me whether kinase still bound, per cent of control recorded for COc1cc(C(=O)N2CCC(N3CCN(C)CC3)CC2)ccc1Nc1ncc2c(n1)N(C)c1ccccc1C(=O)N2C is less than 20%?
Result: 0 (no)

Q: Could you please tell me whether kinase still bound, per cent of control recorded for CN(C)C/C=C/C(=O)Nc1ccc(C(=O)Nc2cccc(Nc3nccc(-c4cccnc4)n3)c2)cc1 is less than 20%?
Result: 1 (yes)

Q: Could you please tell me whether kinase still bound, per cent of control recorded for CNC(=O)c1ccc(Nc2cc(Nc3ccccc3S(=O)(=O)C(C)C)c3cc[nH]c3n2)nc1 is less than 20%?
Result: 1 (yes)

Q: Could you please tell me whether kinase still bound, per cent of control recorded for O=C1NC(=O)/C(=C/c2ccc3nccc(-c4ccncc4)c3c2)S1 is less than 20%?
Result: 0 (no)

Q: Could you please tell me whether kinase still bound, per cent of control recorded for N#Cc1cc(-c2ccnc(Nc3ccc(-n4cnc(-c5cccnc5)n4)cc3)n2)cc(N2CCOCC2)c1 is less than 20%?
Result: 1 (yes)

Q: Could you please tell me whether kinase still bound, per cent of control recorded for C=CC(=O)Nc1ccc(C(=O)c2sc(Nc3ccc(N4CCN(C)CC4)cc3OC)nc2N)cc1 is less than 20%?
Result: 0 (no)
